Assay: Pharmacokinetic study in rats after oral administration of PM extract (HPLC-QQQ-MS of plasma)
Format: in vivo, Sprague–Dawley (SD) rats
Details: male, Sprague-Dawley; rat plasma, oral PM 18 g/kg, n = 6; read-out: Vz/F
readoutKind: Vd/F (L/kg)
Please give a number only; it is taken to be in L/kg.

Example results:
>  <compound>
O=C1c2cccc(O)c2C(=O)c2c(O)cc(CO)cc21

>  <Vd/F, L/kg>
407

$$$$
>  <compound>
COc1cc(O)c2c(c1)C(=O)c1cc(C)cc(OC3OC(CO)C(O)C(O)C3O)c1C2=O [PG, physcion-8-O-β-D-glucoside]

>  <Vd/F, L/kg>
242

$$$$
>  <compound>
OCC1OC(Oc2c(O)cc(O)cc2C=Cc2ccc(O)cc2)C(O)C(O)C1O (stereo not shown)

>  <Vd/F, L/kg>
2000

$$$$

Let's switch to this compound now.
[ask] Identify Vd/F associated with the compound Cc1cc(O)c2c(c1)C(=O)c1cc(O)cc(O)c1C2=O
[reply] 152
